Entries and their Ka values follow.
Molecular target: T1, β16β17 (erythrocyte β-spectrin residues 1898–2083), wild type (human, UniProt P11277 1898-2083)
T1 construct: erythrocyte β-spectrin, human, residues 1898-2083 (β16 plus the incomplete 17th domain); synthetic gene (GenScript) in a modified pRSETA plasmid; source: E. coli C41(DE3), purified (Ni2+ agarose, thrombin cleavage, gel filtration)
T1 sequence (looked up): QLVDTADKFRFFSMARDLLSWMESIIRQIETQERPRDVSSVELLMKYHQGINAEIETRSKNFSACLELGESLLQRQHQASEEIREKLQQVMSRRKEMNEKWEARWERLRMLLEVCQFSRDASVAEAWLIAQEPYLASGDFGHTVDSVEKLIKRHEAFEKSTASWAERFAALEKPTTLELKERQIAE
Assay: ITC; β16β17 at 25–50 μM in the cell titrated with 15–20 injections to 2–2.5 eq of α0α1; one-site binding model; PBS (50 mM sodium phosphate, 150 mM NaCl, pH 7.04), 25 °C; mutants only against the wild-type partner
Conditions: both partners purified
Report only the number, with the unit M⁻¹ understood.

Inquiry: Which Ka reading was recorded for the binder α0α1 Q95A (domain or fragment, human, UniProt P02549 2-163, looked up, mutant of m1; also called Q36A; source: E. coli C41(DE3), purified (Ni2+ agarose, thrombin cleavage, gel filtration)) EQFPKETVVESSGPKVLETAEEIQERRQEVLTRYASFKERVAERGQKLEDSYHLQVFKRDADDLGKWIMEKVNILTDKSYEDPTNIQGKYQKHQSLEAEVQTKSRLMSELEKTREERFTMGHSAHEETKAHIEELRHLWDLLLELTLEKGDQLLRALKFQQY ?
Reply text: 2.29e+06

Inquiry: For the binder shown here, α0α1 E85G (domain or fragment, human, UniProt P02549 2-163, looked up, mutant of m1; also called E26G; source: E. coli C41(DE3), purified (Ni2+ agarose, thrombin cleavage, gel filtration)) EQFPKETVVESSGPKVLETAEEIQGRRQEVLTRYQSFKERVAERGQKLEDSYHLQVFKRDADDLGKWIMEKVNILTDKSYEDPTNIQGKYQKHQSLEAEVQTKSRLMSELEKTREERFTMGHSAHEETKAHIEELRHLWDLLLELTLEKGDQLLRALKFQQY , give the reported Ka.
Reply text: 830000

Inquiry: Report Ka for α0α1 Q95G (domain or fragment, human, UniProt P02549 2-163, looked up, mutant of m1; also called Q36G; source: E. coli C41(DE3), purified (Ni2+ agarose, thrombin cleavage, gel filtration)) EQFPKETVVESSGPKVLETAEEIQERRQEVLTRYGSFKERVAERGQKLEDSYHLQVFKRDADDLGKWIMEKVNILTDKSYEDPTNIQGKYQKHQSLEAEVQTKSRLMSELEKTREERFTMGHSAHEETKAHIEELRHLWDLLLELTLEKGDQLLRALKFQQY please.
Reply text: 2e+06

Inquiry: Record request: Ka value, item α0α1 E99G (domain or fragment, human, UniProt P02549 2-163, looked up, mutant of m1; also called E40G; source: E. coli C41(DE3), purified (Ni2+ agarose, thrombin cleavage, gel filtration)) EQFPKETVVESSGPKVLETAEEIQERRQEVLTRYQSFKGRVAERGQKLEDSYHLQVFKRDADDLGKWIMEKVNILTDKSYEDPTNIQGKYQKHQSLEAEVQTKSRLMSELEKTREERFTMGHSAHEETKAHIEELRHLWDLLLELTLEKGDQLLRALKFQQY
Reply text: 800000

Inquiry: Which value of Ka has been reported for α0α1 T92A (domain or fragment, human, UniProt P02549 2-163, looked up, mutant of m1; also called T33A; source: E. coli C41(DE3), purified (Ni2+ agarose, thrombin cleavage, gel filtration)) EQFPKETVVESSGPKVLETAEEIQERRQEVLARYQSFKERVAERGQKLEDSYHLQVFKRDADDLGKWIMEKVNILTDKSYEDPTNIQGKYQKHQSLEAEVQTKSRLMSELEKTREERFTMGHSAHEETKAHIEELRHLWDLLLELTLEKGDQLLRALKFQQY in the records?
Reply text: 670000

Inquiry: Look up Ka: α0α1 T92G (domain or fragment, human, UniProt P02549 2-163, looked up, mutant of m1; also called T33G; source: E. coli C41(DE3), purified (Ni2+ agarose, thrombin cleavage, gel filtration)) EQFPKETVVESSGPKVLETAEEIQERRQEVLGRYQSFKERVAERGQKLEDSYHLQVFKRDADDLGKWIMEKVNILTDKSYEDPTNIQGKYQKHQSLEAEVQTKSRLMSELEKTREERFTMGHSAHEETKAHIEELRHLWDLLLELTLEKGDQLLRALKFQQY
Reply text: 3.3e+06

Inquiry: Recorded Ka for α0α1 Q106G (domain or fragment, human, UniProt P02549 2-163, looked up, mutant of m1; also called Q47G; source: E. coli C41(DE3), purified (Ni2+ agarose, thrombin cleavage, gel filtration)) EQFPKETVVESSGPKVLETAEEIQERRQEVLTRYQSFKERVAERGGKLEDSYHLQVFKRDADDLGKWIMEKVNILTDKSYEDPTNIQGKYQKHQSLEAEVQTKSRLMSELEKTREERFTMGHSAHEETKAHIEELRHLWDLLLELTLEKGDQLLRALKFQQY , please?
Reply text: 200000
